Biological target: T1, recombinant MBP-EDIII of DENV1 (Dengue virus 1, strain Guiana/FGA89/1989, strain)
T1 construct: also called DENV1 EDIII; envelope protein domain III of DENV1; not shown: MBP, N-terminal, kept
Assay: SPR
Conditions: both partners purified
readout_name: kon (M⁻¹ s⁻¹)
Report only the number, with the unit M⁻¹ s⁻¹ understood.

1A1D-2 Fab Y105R.H (Fab, V domains shown) VH: EVQLQQSGAELVKPGASVKLSCTASGFNIKDTYMHWVKQRPEQGLEWIGRIDPANGYSKYDPKFQGKATITADTSSNAAYLQLSSLTSEDTAVYFCARDYEGFARWGQGTLVTVSS VL: DIVLTQSPASLAVSLGQRATISCRASESVVRYGNSFMHWYQQKPGQPPKLLIYRASSLESGIPTRFSGSGSRTDFTLTINPVEADDVATYYCQQTNVDPWAFGGGTKLEIK    43500
1A1D-2 Fab WT (Fab, V domains shown, also called 1A1D-2 WT) VH: EVQLQQSGAELVKPGASVKLSCTASGFNIKDTYMHWVKQRPEQGLEWIGRIDPANGYSKYDPKFQGKATITADTSSNAAYLQLSSLTSEDTAVYFCARDYEGFAYWGQGTLVTVSS VL: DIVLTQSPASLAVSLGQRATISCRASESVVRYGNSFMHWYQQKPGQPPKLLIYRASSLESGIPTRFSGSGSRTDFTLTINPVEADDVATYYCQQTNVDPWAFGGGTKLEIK    34900

Pending binder:
Look up kon: 1A1D-2 Fab A54E.H (Fab, V domains shown) VH: EVQLQQSGAELVKPGASVKLSCTASGFNIKDTYMHWVKQRPEQGLEWIGRIDPENGYSKYDPKFQGKATITADTSSNAAYLQLSSLTSEDTAVYFCARDYEGFAYWGQGTLVTVSS VL: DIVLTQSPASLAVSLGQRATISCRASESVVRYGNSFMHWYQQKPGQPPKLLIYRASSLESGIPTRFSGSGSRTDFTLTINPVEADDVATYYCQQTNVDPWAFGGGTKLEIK
44300

Reference for the values: paper PMC9027083
